Measured pIC50 by item
# Test system: MCF7
# measurement.notes: Cytotoxicity against human MCF7 cells after 72 hrs by WST1 assay
# Type: functional, cell-based
# assay.conditions: MCF7, 72 h
pIC50: −log10 of the molar value.
test.readout: pIC50

>>> df
                                 smiles_str  target_or_system  test_readout  recorded_number
0  COc1ccc(Cn2cnc3c4nc(=O)n(Cc5cccc(OC)c5)c-4ncnc32)cc1              MCF7         pIC50             5.22
1  COc1ccc(Cn2cnc3c4nc(=O)n(Cc5ccc(F)cc5)c-4ncnc32)cc1              MCF7         pIC50             5.40
2  COc1ccc(Cn2c3ncnc4c(ncn4Cc4ccc(OC)cc4)c-3nc2=O)cc1              MCF7         pIC50             5.12
3  COc1ccc(Cn2cnc3c4nc(=O)n(Cc5ccccc5)c-4ncnc32)cc1              MCF7         pIC50             5.15
4  COc1ccc(Cn2c3nc(-c4ccc([N+](=O)[O-])cc4)nc4c(ncn4Cc4ccc(OC)cc4)c-3nc2=O)cc1              MCF7         pIC50             5.24
